target: Progesterone receptor (Homo sapiens) (UniProt P06401); assay: qHTS assay to identify small molecule antagonists of the progesterone receptor (PR) signaling pathway (AID 1346795); settings: PR-UAS-bla HEK293T, beta-lactamase FRET ratio, 16 h; series mostly up to 92.4 µM
Sequence (P06401 whole entry, looked up): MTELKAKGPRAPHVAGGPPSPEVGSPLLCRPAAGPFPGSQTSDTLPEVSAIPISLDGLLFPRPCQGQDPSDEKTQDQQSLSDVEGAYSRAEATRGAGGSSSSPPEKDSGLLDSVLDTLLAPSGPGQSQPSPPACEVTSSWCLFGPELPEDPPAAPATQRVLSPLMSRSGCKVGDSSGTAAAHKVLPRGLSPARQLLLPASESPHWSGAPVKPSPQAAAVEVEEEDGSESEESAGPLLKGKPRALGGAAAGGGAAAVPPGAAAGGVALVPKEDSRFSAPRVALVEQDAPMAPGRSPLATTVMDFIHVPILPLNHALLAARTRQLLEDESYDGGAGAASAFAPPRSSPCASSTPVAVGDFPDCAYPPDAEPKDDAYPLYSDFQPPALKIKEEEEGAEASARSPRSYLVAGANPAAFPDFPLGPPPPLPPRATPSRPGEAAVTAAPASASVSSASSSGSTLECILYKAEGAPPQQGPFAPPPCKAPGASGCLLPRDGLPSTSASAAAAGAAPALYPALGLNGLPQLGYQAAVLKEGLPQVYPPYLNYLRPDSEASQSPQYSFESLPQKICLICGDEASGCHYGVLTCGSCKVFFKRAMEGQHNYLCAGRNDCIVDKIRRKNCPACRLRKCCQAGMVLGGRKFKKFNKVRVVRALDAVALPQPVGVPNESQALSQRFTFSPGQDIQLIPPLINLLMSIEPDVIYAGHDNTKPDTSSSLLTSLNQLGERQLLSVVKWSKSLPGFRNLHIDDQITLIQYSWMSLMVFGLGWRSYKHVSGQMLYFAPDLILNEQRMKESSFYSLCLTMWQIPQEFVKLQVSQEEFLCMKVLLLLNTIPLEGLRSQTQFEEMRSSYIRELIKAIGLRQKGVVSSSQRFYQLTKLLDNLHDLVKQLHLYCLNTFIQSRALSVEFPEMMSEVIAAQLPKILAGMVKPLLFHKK
Inconclusive results are not listed. Calls of active or inactive are those of the source. The call rests on the fitted dose curve; in most records, active means well fitted inhibition curve with a large enough effect in the signal ratio in the repeat runs (not every such curve was filed as active); inconclusive means weak or mixed curves; inactive means flat fitted curve, though single readings scatter; the % refers to the signal ratio.
Returns: one label drawn from YES = active, NO = inactive

These solved cases illustrate the format of a correct answer.
MOLECULE: Cc1nc(-c2ccc(Cl)cc2)oc1COC(C)(C)C(=O)O
CLASSIFICATION: NO

MOLECULE: Fc1ccc(C(c2ccc(F)cc2)N2CCNCC2)cc1
CLASSIFICATION: NO

MOLECULE: CCN(CCN)c1cccc(C)c1
CLASSIFICATION: NO

MOLECULE: Cc1cccc2cccnc12
CLASSIFICATION: NO

MOLECULE: OC12N=C(c3ccccc3)SC1Cc1cc(Cl)ccc12 (stereo not given)
CLASSIFICATION: YES

I'd appreciate the recorded outcome for NC(=S)NC(N)=S from this test.
NO

I'd appreciate the recorded outcome for CC(C)=CCNc1ncnc2c1ncn2[C@@H]1O[C@H](CO)[C@@H](O)[C@H]1O from this test.
NO

I'd appreciate the recorded outcome for Cc1nc2n(c(=O)c1CCN1CCC(c3noc4cc(F)ccc34)CC1)CCCC2 from this test.
NO

I'd appreciate the recorded outcome for CCc1ccc(Br)cc1 from this test.
NO

I'd appreciate the recorded outcome for OC[C@H]1O[C@H](O[C@H]2O[C@H](CO)[C@@H](O)[C@H](O)[C@H]2O)[C@H](O)[C@@H](O)[C@@H]1O from this test.
NO

I'd appreciate the recorded outcome for CC(=O)CC(=O)Nc1ccc(S(=O)(=O)O)cc1 from this test.
NO

I'd appreciate the recorded outcome for O=C(O)c1cc(-c2ccc(F)cc2F)ccc1O from this test.
NO

I'd appreciate the recorded outcome for CC(C)CCOC(=O)/C=C/c1ccccc1 from this test.
NO

---

assay: qHTS assay to identify small molecule antagonists of the thyroid receptor (TR) signaling pathway - cell viability counter screen (AID 743064); details: GH3.TRE-Luc viability, CellTiter-Fluor, 24 h; series mostly up to 70.3 µM; further: nearly all actives have a fitted effect of over 50% in size
Inconclusive results are not listed. Calls of active or inactive are those of the source. Calls follow the shape of the dose curve; as a rule, active = well fitted cell-killing curve with a large enough effect in the repeat runs; inconclusive = weak or mixed curves, or effect the other way; inactive = no such curve, though single readings can be large or run the other way.
Returns: one label drawn from active, inactive

These solved cases illustrate the format of a correct answer.
COMPOUND: O=c1c(O)c(-c2ccc(O)cc2O)oc2cc(O)cc(O)c12
CLASSIFICATION: inactive

COMPOUND: c1ccc(C(O[C@@H]2CCCN(CCc3ccc4c(c3)OCO4)C2)c2ccccc2)cc1
CLASSIFICATION: active

COMPOUND: C=Cc1ccccc1C=C
CLASSIFICATION: inactive

I'd appreciate the recorded outcome for Cc1cc(C(C#N)c2ccc(Cl)cc2)c(Cl)cc1NC(=O)c1cc(I)cc(I)c1O (stereo unspecified) from this test.
active

I'd appreciate the recorded outcome for O=C(O)c1cc(-c2ccc(F)cc2F)ccc1O from this test.
inactive

I'd appreciate the recorded outcome for S=c1nccc[nH]1 from this test.
inactive

---

test: qHTS assay to identify small molecule antagonists of the thyroid receptor (TR) signaling pathway (AID 743065); conditions: GH3.TRE-Luc, T3-stimulated luciferase inhibition, 23.5 h; series mostly up to 70.3 µM; further: nearly all actives have a fitted effect of over 55% in size; further: potency means the concentration at half of the fitted maximal effect
Records with an inconclusive call do not appear. Calls of active or inactive are those of the source. Calls follow the shape of the dose curve; as a rule, active = well fitted inhibition curve with a large enough effect in the repeat runs; inconclusive = weak or mixed curves; inactive = no such curve, though single readings can be large or run the other way.
PROPERTY MEASURED: Potency

MOLECULE: OC1CCCc2ccccc21 (stereo not given)
ENDPOINT RESULT: inactive
//
MOLECULE: CC(CO)Oc1ccccc1 (stereo not given)
ENDPOINT RESULT: inactive
//
MOLECULE: C=CC(=O)OCCOC(=O)C=C
ENDPOINT RESULT: 38.6 µM (active)
//
MOLECULE: CCCCCCCCCCOC(=O)c1ccccc1C(=O)OCCCCCCCC
ENDPOINT RESULT: inactive
//
MOLECULE: Cc1ccc(C)cc1
ENDPOINT RESULT: inactive

Answer for every listed entry: what is its Potency? The entries follow.
1. C=Cc1ccccc1C=C
2. CC[N+](CC)(CC)CCOc1ccc(/C=C/c2ccccc2)cc1
3. OC12N=C(c3ccccc3)SC1Cc1cc(Cl)ccc12 (stereo not given)
4. Cc1cccc2cccnc12

1: inactive; 2: 29.8 µM (active); 3: 61.1 µM (active); 4: inactive

Answer for every listed entry: what is its Potency? The entries follow.
1. c1cnccn1
2. O=C(/C=C/c1ccc(O)c(O)c1)O[C@@H](C(=O)O)[C@@H](OC(=O)/C=C/c1ccc(O)c(O)c1)C(=O)O
3. CCn1c2ccccc2c2cc([N+](=O)[O-])ccc21
4. CCCCCCCCCCCCOC(=O)c1ccc(O)cc1
5. Nc1ccc(C(=O)O)c(O)c1
6. O=C(O)c1cc(=O)c2ccccc2o1
7. CCOC(=O)Cn1cccc1-c1nc(-c2ccc(OC)cc2)c(-c2ccc(OC)cc2)s1

1: inactive; 2: inactive; 3: inactive; 4: 27.5 µM (active); 5: inactive; 6: inactive; 7: 13.3 µM (active)

Answer for every listed entry: what is its Potency? The entries follow.
1. CCCC(=O)OC(C)(C)Cc1ccccc1
2. Cc1ccc(C(C)C)cc2c(C)ccc1-2
3. C[C@@H](O)[C@H](N)C(=O)O
4. CC1(C)CCC[C@]2(C)[C@H]3CC(=O)O[C@]3(C)CC[C@@H]12

1. inactive
2. inactive
3. inactive
4. 54.5 µM (active)
